Assay: Pharmacokinetics according to renal function of patients
Type: in vivo, human
Settings: both sexes, human, plasma, oral, 200 mg, moderate impairment, 200 mg once daily, Day 7, plasma; read-out: AUC0-t (AUC0-48 h), geometric LS mean
measurement_type: AUC(0-t)

Query block: State its AUC(0-t): CC(C)n1cc(C#N)c2cc(-n3cc(C(=O)O)cn3)ccc21
Result block: 35200 ng·h/mL

====

Assay: Pharmacokinetics according to renal function of patients
Type: in vivo, human
Conditions: both sexes, human, plasma, oral, 200 mg, normal renal function (control), 200 mg once daily, Day 7, plasma; read-out: AUCtau, geometric LS mean
measurement_type: AUC (ng·h/mL)
Report as a plain number; the unit ng·h/mL is understood.

Query block: State its AUC: CC(C)n1cc(C#N)c2cc(-n3cc(C(=O)O)cn3)ccc21
Result block: 30900

Source: patent US20240415814A1
